Tested on: HIV-1 (H9IIIB strain)
Test: Cell-Based HIV Infection Assay Using a Reporter (MT4-GFP cells)
Conditions: Human immunodeficiency virus 1, inflection point (IP) of viral growth inhibition; MT4-GFP cells infected with HIV-1 H9IIIB; 50% normal human serum; mean of at least two independent experiments; read-out: Cell Based IP (50% NHS)
pEC50: −log10 of the molar value.
The molecules listed here are annotated with their pEC50.
readout: pEC50

molecule: N[C@H](C(=O)Nc1cccc(F)c1CCC1CNC2CCCS(=O)(=O)N1C2)[C@@H](c1ccc(F)cc1)c1ccc(C2CC2)cc1 (stereo partly drawn)
readout.number: 7.80
//
molecule: COC(=O)N[C@H](C(=O)Nc1cccc(F)c1CCC1CNC2CCCS(=O)(=O)N1C2)[C@@H](c1ccc(F)cc1)c1ccc(C(F)(F)F)cc1 (stereo partly drawn)
readout.number: 8.24
//
molecule: COC(=O)N[C@H](C(=O)Nc1cccc(F)c1CC[C@H]1CNC2CCCS(=O)(=O)N1C2)[C@@H](c1ccc(Cl)cc1)C1CCS(=O)(=O)CC1 (stereo partly drawn)
readout.number: 6.14

The measured values listed here are drawn from patent US10138255B2.
